# run description: binders from COS7 lysate, DM2A8 probe, primary screen, torsin A project, cell lysate, small-molecule microarray, fluorescence 635/667 (AID 1065)
# reported conditions: higher = more signal, COS7 lysate expressing mutant human TOR1A
endpoint name: composite z-score
Number only, no unit.

Read the entry "[N-]=[N+]=NCc1ccccc1C[C@@]1(C(=O)NCCN2CCOCC2)N=C(c2ccc(OCCCO)cc2)O[C@@H]1c1ccccc1N=[N+]=[N-]" and write its reported composite z-score.
1.99

Read the entry "C[C@H]1ON(c2ccc(C(=O)OC(C)(C)C)cc2)[C@@H](c2ccc(O)cc2)[C@@H]1C(=O)N1C(=O)OC[C@@H]1c1ccccc1" and write its reported composite z-score.
-0.156

Read the entry "CCCN1C(=O)[C@]2(Cc3ccccc3)N=C(c3ccc(OCCCO)cc3)O[C@@H]2c2ccccc21" and write its reported composite z-score.
1.12

Read the entry CN1C2C=C(CCCO)C(C3C(=O)N(C(N)=O)C(=O)C32)C1c1cccs1 (configuration not stated) and write its reported composite z-score.
0.104

Read the entry "COC(=O)[C@@]1(Cc2ccccc2)[C@H]2c3cc(C(=O)N4CCCC4)n(C[C@H](O)CO)c3C[C@H]2CN1C(=O)c1ccccc1" and write its reported composite z-score.
-0.0861

Read the entry "CC(C)C[C@@H]1NC(=O)[C@H]2C[C@@H](C(=O)NCCCCCC[N+](C)(C)C)[C@@H](c3cccc(OCCO)c3)N2C1=O" and write its reported composite z-score.
0.121

Read the entry "CC(C)(C)OC(=O)CC[C@]1(C(=O)N2CCOCC2)N=C(c2ccc(OCCCO)cc2)O[C@H]1c1ccccc1" and write its reported composite z-score.
0.177

Read the entry "CC(C)(C)OC(=O)CC[C@@]1(C(=O)O)N=C(c2ccc(OCCCO)cc2)O[C@@H]1c1ccccc1CN=[N+]=[N-]" and write its reported composite z-score.
0.348

Read the entry "CCOC(=O)C1=CC[C@@H](c2ccccc2C(F)(F)F)N(S(=O)(=O)c2ccc(C)cc2)C1" and write its reported composite z-score.
1.54

Read the entry "COC(=O)[C@@]1(Cc2ccccc2)[C@H]2c3cc(C(=O)N4CCCC4)n(Cc4ccsc4Br)c3C[C@H]2CN1C(=O)c1ccccc1" and write its reported composite z-score.
-0.411

Read the entry "COc1ccccc1CN1C(=O)c2ccccc2[C@](Cc2ccccc2I)(C(=O)NC(C)C)[C@@H]1c1ccc(CO)cc1" and write its reported composite z-score.
0.49

Read the entry O=C1C2C=CC(C(O)c3cc(C(F)(F)F)cc(C(F)(F)F)c3)N(Nc3ccc([N+](=O)[O-])cc3)C2C(=O)N1c1ccccc1 (configuration not stated) and write its reported composite z-score.
0.466

Read the entry "O=C(N1CCCCC1)[C@@]1(Cc2ccccc2)COC(c2ccc(OCCCO)cc2)=N1" and write its reported composite z-score.
0.81

Read the entry "CN(C)C(=O)[C@@]1(Cc2ccccc2N=[N+]=[N-])COC(c2ccc(OCCCO)cc2)=N1" and write its reported composite z-score.
0.33

Read the entry "COC(=O)[C@@]1(Cc2ccccc2)[C@H]2c3cc(C(=O)N4CCCC4)[nH]c3C[C@H]2CN1C(=O)c1ccccc1" and write its reported composite z-score.
0.065

Read the entry "COc1cc2c(cc1OC)CN(C(=O)[C@@H]1[C@H]3C(=O)O[C@H](c4ccccc4)[C@H](c4ccccc4)N3[C@H](c3ccccc3OCCO)[C@@]13C(=O)Nc1ccc(C#CC4(O)CCCCCC4)cc13)CC2" and write its reported composite z-score.
0.955

Read the entry "O=c1cccc(-c2ccc(C(F)(F)F)cc2)o1" and write its reported composite z-score.
-0.814

Read the entry "NCCCCCNC(=O)[C@@H]1C[C@@H]2C(=O)N[C@@H](CCCCN)C(=O)N2[C@@H]1c1cccc(OCCO)c1" and write its reported composite z-score.
0.329

Read the entry "CN(C)CCCNC(=O)[C@@]1(c2ccc([N+](=O)[O-])cc2)CC(=O)N(CC23CC4CC(CC(C4)C2)C3)[C@@H]1c1ccc(CO)cc1" and write its reported composite z-score.
1.15

Read the entry CC[C@H]1C2=C3C(CC[C@H]4C(OCc5ccc(F)cc5C(F)(F)F)OC[C@](C)([C@@H]34)N(C(=O)OC(C)(C)C)C2)C2COC(=O)OCC21 (some centres not stated) and write its reported composite z-score.
-0.377

Read the entry "COCCOC(=O)N1C(=O)[C@@]2(c3cc(C#CC4=CCCCC4)ccc31)[C@H](C(=O)N1CCN(c3ncccn3)CC1)[C@H]1C(=O)O[C@H](c3ccccc3)[C@H](c3ccccc3)N1[C@@H]2c1ccc(O)cc1" and write its reported composite z-score.
0.181

Read the entry "COCCOC(=O)N1C(=O)[C@@]2(c3cc(C#CCC(C(=O)OC)C(=O)OC)ccc31)[C@H](c1ccc(OCCO)cc1)N1[C@H](c3ccccc3)[C@H](c3ccccc3)OC(=O)[C@H]1[C@@H]2C(=O)N1CCN(c2ncccn2)CC1" and write its reported composite z-score.
1.32

====

# run description: COS7 lysate on small-molecule microarray, probe aHis, 635 nm (AID 1123);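 also: z-score combines 667nm fluorescence intensity with signal-to-noise per printed compound spot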
# reported conditions: COS7 cell lysate, fluorescence, higher = more signal
endpoint name: composite z-score

Read the entry "O=C1O[C@@H](c2ccccc2)[C@@H](c2ccccc2)N2[C@@H](c3ccccc3OCCO)[C@]3(C(=O)Nc4ccc(C#CCCO)cc43)[C@@H](C(=O)N3CCN(c4ncccn4)CC3)[C@H]12" and write its reported composite z-score.
2.09

Read the entry "COc1c(C)cc(-c2cc3c(c(-c4ccccc4)n2)[Si](C(C)C)(C(C)C)OC3)cc1C" and write its reported composite z-score.
-0.591

Read the entry "COc1cc2c(cc1OC)CN(C(=O)[C@H]1[C@@H]3C(=O)O[C@@H](c4ccccc4)[C@@H](c4ccccc4)N3[C@@H](c3ccc(OCCO)cc3)[C@]13C(=O)Nc1ccc(C#CC4(O)CCCCCC4)cc13)CC2" and write its reported composite z-score.
1.52

Read the entry "Cc1ccc(S[C@]2(C(=O)NC(C)C)CC(=O)N(Cc3ccccc3C(F)(F)F)[C@@H]2c2ccc(CO)cc2I)cc1" and write its reported composite z-score.
0.352

====

I'd appreciate it if you could supply composite z-score values for the items below.
# System: Inhibin beta A chain (activin A)
# run description: INHBA (activin A) binders on microarrays, primary screen, biochemical, small-molecule microarray, 635 nm fluorescence scan (AID 1107);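 also: mouse activin A protein probed at 4.33 µg/mL on printed slides; score merges bound-protein fluorescence near 667 nm with spot signal-to-noise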
# reported conditions: small-molecule microarray binding, higher = more signal
Number only, no unit.

Read the entry "CCOC(=O)C[C@H]1[C@H](OC(=O)c2ccccc2-c2ccccc2)[C@@H](NC(=O)c2ccc3ccccc3n2)c2cc(OCCCO)ccc2N1C(=O)c1ccc2ccccc2n1" and write its reported composite z-score.
-0.0055

Read the entry "COc1ccc([Si](C)(C)[C@H]2[C@H](CCn3cc(CCO)nn3)O[C@@]3(C(=O)N(Cc4ccc(N5C(=O)c6cccc7cccc5c67)cc4)c4ccccc43)[C@@H]2C)cc1" and write its reported composite z-score.
0.281

Read the entry "COCCCNC(=O)[C@]1(Cc2ccccc2CN=[N+]=[N-])N=C(c2ccc(OCCCO)cc2)O[C@@H]1c1ccccc1" and write its reported composite z-score.
0.493

====

# run description: E. coli growth modulation, two-sided OD650, primary screen, E. coli filamentation project, strain DRC41, 24 h (AID 1093);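 also: MC1000 strain lacking acrAB efflux and sulA so SOS filamentation is blocked; test concentration not given here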
# reported conditions: OD650, 24 h, higher = more signal, called active from +8 up or from −8 down
The source made the active and inactive calls.
endpoint name: z-score

Read the entry "COC(=O)[C@@]1(Cc2ccccc2)[C@H]2c3cc(C(=O)N4CCCC4)n(C[C@H](O)CO)c3C[C@H]2CN1C(=O)c1ccccc1" and write its reported z-score.
-0.436 (inactive)

Read the entry COc1cc(OC)c(C(O)C2C=CC3C(=O)N(c4ccccc4)C(=O)C3N2Nc2ccc(C#N)cc2)cc1Br (configuration not stated) and write its reported z-score.
-0.409 (inactive)

Read the entry "C=CCOC(=O)[C@@H]1[C@H]2C(=O)O[C@H](c3ccccc3)[C@H](c3ccccc3)N2[C@H](c2ccc(OCCOC(=O)[C@H]3C[C@H]4C(=O)N[C@@H](CC(C)C)C(=O)N4[C@H]3c3ccc(O)cc3)cc2)[C@@]12C(=O)Nc1ccc(I)cc12" and write its reported z-score.
0.574 (inactive)

Read the entry CN1C(=O)C2C(C1=O)C1C=C(c3ccc(CO)cc3)C2C(c2cccs2)N1Cc1cccc(OC(F)(F)F)c1 (configuration not stated) and write its reported z-score.
0.907 (inactive)

Read the entry "Cc1c(NC(=O)/C(C#N)=C/C=C/c2ccccc2[N+](=O)[O-])c(=O)n(-c2ccccc2)n1C" and write its reported z-score.
1.02 (inactive)

Read the entry C=C1C2CC3C(=C4C(CO[C@@H]4[C@H]4CCCN4S(=O)(=O)c4ccccc4[N+](=O)[O-])C4C(=O)N(C)C(=O)C34)CC2C(=O)N1C (some centres not stated) and write its reported z-score.
-0.509 (inactive)

Read the entry "CC(C)(C)OC(=O)CC[C@]1(C(=O)NCCN2CCOCC2)N=C(c2ccc(OCCCO)cc2)O[C@H]1c1ccccc1" and write its reported z-score.
0.437 (inactive)

Read the entry "CCCC[C@@H]1C[C@H]1[C@@H](NC(=O)c1cccnc1)c1ccc(-c2ccccc2)cc1" and write its reported z-score.
-0.919 (inactive)

Read the entry COc1ccc(NN2C(C(O)c3ccccn3)C=CC3C(=O)N(C4CCCCC4)C(=O)C32)cc1 (configuration not stated) and write its reported z-score.
0.265 (inactive)

Read the entry "[N-]=[N+]=NCc1ccccc1[C@H]1OC(c2ccc(OCCCO)cc2)=N[C@@]1(CCS(=O)(=O)c1ccccc1)C(N)=O" and write its reported z-score.
-0.199 (inactive)

Read the entry "C[C@]1(C(=O)O)c2ccccc2C(=O)N(Cc2ccccc2)[C@H]1c1ccc(CO)cc1" and write its reported z-score.
0.651 (inactive)

Read the entry "CC(C)N1C(=O)[C@@]2(c3ccc([N+](=O)[O-])cc3)CC(=O)N(C3CCCCC3)[C@@H]2c2ccc(CO)cc21" and write its reported z-score.
-1.43 (inactive)

Read the entry "C[C@]1(C(=O)NCCN2CCOCC2)c2ccccc2C(=O)N(Cc2ccc(OC(F)(F)F)cc2)[C@H]1c1ccc(CO)cc1" and write its reported z-score.
0.365 (inactive)

Read the entry "[N-]=[N+]=NCc1ccccc1C[C@@]1(C(=O)NCCN2CCOCC2)N=C(c2ccc(OCCCO)cc2)O[C@@H]1c1ccccc1N=[N+]=[N-]" and write its reported z-score.
-0.704 (inactive)

Read the entry "C=C(C(=O)CC[C@H](OC(C)=O)c1cccc(OCCO)c1)C(C)C" and write its reported z-score.
1.04 (inactive)

Read the entry "C[C@@H]1ON(c2ccc(C(=O)OC(C)(C)C)cc2)[C@H](c2ccc(Br)cc2)[C@H]1C(=O)N1C(=O)OC[C@H]1Cc1ccccc1" and write its reported z-score.
0.425 (inactive)

Read the entry "CCOC(=O)[C@H]1C/C=C/C[C@H](C(=O)OCC)C(=O)O[C@H]2[C@@H](OC)O[C@H](CO)[C@@H](OC(=O)Nc3ccc(OC)cc3)[C@@H]2OC1=O" and write its reported z-score.
1.3 (inactive)
